Catalogue of IC50 readings, one per entry.
# ASSAY_SYSTEM: Recombinant human KIF18A (1-467 His-tagged) protein (Homo sapiens)
# Construct: Recombinant human KIF18A (1-467 His-tagged) protein; His
# Sequence (Q8NI77 1-467): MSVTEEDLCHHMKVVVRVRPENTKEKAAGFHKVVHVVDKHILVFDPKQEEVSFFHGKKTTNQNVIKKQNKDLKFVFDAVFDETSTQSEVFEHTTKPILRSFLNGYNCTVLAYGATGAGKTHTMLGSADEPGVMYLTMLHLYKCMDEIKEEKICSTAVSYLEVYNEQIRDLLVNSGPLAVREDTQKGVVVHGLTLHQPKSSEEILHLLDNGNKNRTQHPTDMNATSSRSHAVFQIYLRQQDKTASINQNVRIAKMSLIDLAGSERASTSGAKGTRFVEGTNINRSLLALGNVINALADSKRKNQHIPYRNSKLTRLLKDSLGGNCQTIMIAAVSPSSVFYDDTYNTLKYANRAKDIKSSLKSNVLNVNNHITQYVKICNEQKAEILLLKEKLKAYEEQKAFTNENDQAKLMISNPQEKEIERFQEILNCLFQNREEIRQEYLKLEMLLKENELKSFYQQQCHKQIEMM
# Sequence (P02550 whole entry partner): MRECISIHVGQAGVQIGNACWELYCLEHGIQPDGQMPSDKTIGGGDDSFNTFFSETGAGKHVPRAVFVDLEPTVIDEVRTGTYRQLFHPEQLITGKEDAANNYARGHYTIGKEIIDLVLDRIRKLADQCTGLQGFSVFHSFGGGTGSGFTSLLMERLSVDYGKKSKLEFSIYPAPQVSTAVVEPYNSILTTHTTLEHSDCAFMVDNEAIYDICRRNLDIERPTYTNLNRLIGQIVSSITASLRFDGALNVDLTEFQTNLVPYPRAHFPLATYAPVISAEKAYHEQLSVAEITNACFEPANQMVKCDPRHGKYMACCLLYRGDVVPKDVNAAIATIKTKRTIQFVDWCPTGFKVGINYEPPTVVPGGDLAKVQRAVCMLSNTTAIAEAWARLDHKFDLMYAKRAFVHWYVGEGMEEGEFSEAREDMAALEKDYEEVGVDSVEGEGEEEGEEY
# Sequence (P02554 whole entry partner): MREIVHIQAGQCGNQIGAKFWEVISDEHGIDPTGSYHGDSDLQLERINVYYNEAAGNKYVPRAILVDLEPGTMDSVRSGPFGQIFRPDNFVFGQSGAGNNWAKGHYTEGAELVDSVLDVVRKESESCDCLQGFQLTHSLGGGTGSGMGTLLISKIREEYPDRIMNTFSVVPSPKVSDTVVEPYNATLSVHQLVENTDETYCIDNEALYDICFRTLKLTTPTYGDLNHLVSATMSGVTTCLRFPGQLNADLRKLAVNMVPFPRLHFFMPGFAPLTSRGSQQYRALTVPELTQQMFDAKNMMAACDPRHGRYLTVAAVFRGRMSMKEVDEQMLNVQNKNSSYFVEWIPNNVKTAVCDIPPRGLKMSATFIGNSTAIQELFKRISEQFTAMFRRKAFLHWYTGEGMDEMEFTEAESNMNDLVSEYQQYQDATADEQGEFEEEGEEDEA
# MEASUREMENT_NOTES: KIF18A Enzyme Assay: microtubule-stimulated ATPase activity assay (ADP-Glo)
# STUDY_CONDITIONS: 30 nM KIF18A, 30 μg/mL pig microtubules, ATP at Km 75 μM, room temperature, ADP-Glo luminescence
State just the number; it will be interpreted in nM.

Guide cases for IC50, answers given:
COMPOUND	ASSAY_SYSTEM	IC50, nM
Cc1cc(NC(=O)c2ncc([S@](=N)(=O)C3CC3)cc2N2CCC3(CC2)CC3)nc(N2CCC(F)(F)CC2)n1	Recombinant human KIF18A (1-467 His-tagged) protein (Homo sapiens)	105
Cc1cc(NC(=O)c2ncc(S(=N)(=O)C3CC3)cc2N2CCC3(CC2)CC3)nc(N2CCC(F)(F)CC2)n1 (single isomer, unassigned)	Recombinant human KIF18A (1-467 His-tagged) protein (Homo sapiens)	71

Fill in the blank: the reported IC50 of Cc1cc(NC(=O)c2cnc([S@@](=N)(=O)C3CC3)cc2N2CCC3(CC2)CC3)nc(N2CCC(F)(F)CC2)n1 (single isomer, unassigned) is ____. 206

Can you look up the measured IC50 of Cc1cc(NC(=O)c2ccc(NS(=O)(=O)CCO)nc2N2CCC3(CC2)CC3)nc(N2CCO[C@H](C)C2)n1 for me? 402

Quick one: IC50 for Cc1cc(NC(=O)c2ncc(S(=O)(=O)C3CC3)cc2N2CCC3(CC2)CC3)nc(N2CCC(F)(F)CC2)n1 ? 91
